B1: MFF (parent)
chain: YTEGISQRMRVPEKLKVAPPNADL

- Variants of: B1
- test.description: protein stability index of a GFP-peptide fusion (GPS, HEK-293T) (PSI 1-6); higher = more stable;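 further: lentivirally expressed fusions sorted by FACS into six bins by GFP to DsRed ratio, PSI derived from sequencing read proportions per bin multiplied by bin number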
- condition: c terminus: a fixed tail appended
recorded.metric: protein stability index
Numbers only.

P12Q    2.78

Give measured protein stability index for every item shown.
1. D23N
2. V11N
3. L15W
4. A18T
5. L24R
6. G4N
7. Q7D
8. V17G

Output line:
2.65
2.91
2.51
3.03
2.89
3.75
3.43
2.65

Give measured protein stability index for every item shown.
1. V17S
2. R8Y
3. D23F
4. P12N
5. D23C
6. E13D
7. K16D
8. E3G

Output line:
[2.48, 1.75, 2.47, 2.96, 2.47, 2.86, 3.87, 2.3]

Give measured protein stability index for every item shown.
1. I5D
2. P19A
3. P20V
4. V11S
5. L24C
6. A22D
7. P19G
8. L24G

Output line:
[4.55, 2.51, 3.06, 3.29, 2.87, 3.34, 2.78, 2.91]

Give measured protein stability index for every item shown.
1. T2G
2. Q7P
3. P19V
4. T2W

Output line:
[3.85, 3.4, 3.29, 3.17]

Data origin: the supplement of paper PMC10567573
